Reported eosinophils values for a set of substances
- experimental protocol: Hematology assays in cynomolgus monkeys (Example 45)
- Type: in vivo
- experimental conditions: day 36
The response must be a number in % with no trailing unit.

Reported eosinophils for ISIS 416838: MOE gapmer, nucleobases 1018 to 1042 of SEQ ID NO: 1 (Table 6) (antisense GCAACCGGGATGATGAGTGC; MOE gapmer, wing and gap sizes not given here) was 0.5

----------
- Tested on: human Factor 11 mRNA
- experimental protocol: Dose-dependent inhibition of human Factor 11 in HepG2 cells, electroporation 0.7-20 uM (Example 4)
- Assay type: cell-based
- experimental conditions: 20 μM, relative to untreated control cells
Strand notation (5' to 3'): a small letter for the sugar, then the base; units joined by * are phosphorothioate-linked, units joined directly phosphodiester-linked; [ ] holds rarer units or linkages, { } end groups; capitals alone tell only the bases. e = 2'-O-(2-methoxyethyl) (MOE); [5mC] = 5-methylcytosine; d = 2'-deoxy (DNA)
readout kind: percent inhibition of Factor 11 at 20 μM (%)
The response must be a number in % with no trailing unit.

Known results for substances:
>>> print(df.to_string())
                                  substance           test_target                              readout_kind  measured
0  416856 (antisense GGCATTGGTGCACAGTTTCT; 5-10-5 gapmer, further chemistry not given here) [compound 416856]  human Factor 11 mRNA  percent inhibition of Factor 11 at 20 μM        93
1  416842 (antisense eT*eG*eA*eG*eA*dT*dT*d[5mC]*dT*dT*dT*dG*dG*dG*d[5mC]*e[5mC]*eA*eT*eT*e[5mC]) [compound 416842]  human Factor 11 mRNA  percent inhibition of Factor 11 at 20 μM        92
2  416892 (antisense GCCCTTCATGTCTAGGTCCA; 3-14-3 chimeric gapmer, further chemistry not given here) [compound 416892]  human Factor 11 mRNA  percent inhibition of Factor 11 at 20 μM        92
3  413474 (antisense eA*eG*e[5mC]*eA*eA*d[5mC]*d[5mC]*dG*dG*dG*dA*dT*dG*dA*dT*eG*eA*eG*eT*eG) [compound 413474]  human Factor 11 mRNA  percent inhibition of Factor 11 at 20 μM        81

Now look at this entry.
Reported percent inhibition of Factor 11 at 20 μM for 416838 (antisense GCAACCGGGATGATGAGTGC; 5-10-5 gapmer, further chemistry not given here) [compound 416838] was 83

----------
- experimental protocol: Hematology assays in cynomolgus monkeys (Example 45)
- Type: in vivo
- experimental conditions: day 71
readout kind: eosinophils (%)
The response must be a number in % with no trailing unit.

Known results for substances:
substance	measured
ISIS 416858: MOE gapmer, nucleobases 1275 to 1318 of SEQ ID NO: 1 (Table 8) (antisense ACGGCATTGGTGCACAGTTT; MOE gapmer, wing and gap sizes not given here)	0.9
ISIS 417002: MOE gapmer, nucleobases 1275 to 1318 of SEQ ID NO: 1 (Table 8) (antisense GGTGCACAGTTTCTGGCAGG; MOE gapmer, wing and gap sizes not given here)	0.3
ISIS 416838: MOE gapmer, nucleobases 1018 to 1042 of SEQ ID NO: 1 (Table 6) (antisense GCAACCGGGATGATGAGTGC; MOE gapmer, wing and gap sizes not given here)	0.8

Now look at this entry.
Reported eosinophils for ISIS 416864: MOE gapmer, nucleobases 1275 to 1318 of SEQ ID NO: 1 (Table 8) (antisense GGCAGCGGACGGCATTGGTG; MOE gapmer, wing and gap sizes not given here) was 1.1
